# Test system: Plasmodium falciparum
# method: Antimalarial activity against MMV-048 resistant Plasmodium falciparum Dd2 harboring PI4K S743T mutant assessed as reduction in parasite growth incubated for 72 hrs by [3H]-hypoxanthine incorporation assay
# Assay type: functional, organism-based
Each record here notes measured pEC50.
pEC50 is a log-scale quantity: -log10 of the concentration expressed in molar.

Worked examples follow.
| substance smiles | pEC50 |
| --- | --- |
| CC(C)(Nc1ccc(Cl)c(S(=O)(=O)N2CCOCC2)c1)C(=O)Nc1ccc(F)c(Cl)c1 | 9.00 |
| CS(=O)(=O)c1ccc(-c2cnc(N)c(-c3ccc(C(F)(F)F)nc3)c2)cc1 | 6.92 |

Below: the item to evaluate.
Input: // fetch pEC50 given entry `O=C(CNc1ccc(Cl)c(S(=O)(=O)N2CCOCC2)c1)Nc1ccc(F)c(Cl)c1`
Output: 7.55
